Test system: CN0375-F725-PDC KRAS spheroid viability
Test: Anticancer human tumor CN0375-F725-PDC patient-derived colon carcinoma cell line growth inhibition [KRAS2]
Details: second compound 1 µM; first compound 0.001 µM; stronger effect = lower value; spheroids with HUVEC and MSC
EXPERIMENTAL READOUT: viability, T/C (%)
Numeric only. Scale: %

Q: If you can, please state the reported viability, T/C value of CN(C)C/C=C/C(=O)Nc1cc2c(Nc3ccc(F)c(Cl)c3)ncnc2cc1O[C@H]1CCOC1 + COc1cc2nc(C)nc(NC(C)c3cc(N)cc(C(F)(F)F)c3)c2cc1OC1CCOC1 .
A: 94.6

###

System: CN0375-F725-PDC KRAS spheroid viability
Assay: Anticancer human tumor CN0375-F725-PDC cell line growth inhibition [KRAS2];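 further: spheroids exposed to agents for 7 days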
Conditions: second compound 0.316 µM; first compound 1 µM; stronger effect = lower value; spheroids with HUVEC and MSC
Rule: viability, T/C below 80% gives fulfilled, anything at or above gives not fulfilled.

COc1cc(Nc2ncc3c(n2)-c2ccc(Cl)cc2C(c2c(F)cccc2OC)=NC3)ccc1C(=O)O + COc1cc2nc(C)nc(NC(C)c3cc(N)cc(C(F)(F)F)c3)c2cc1OC1CCOC1 ... not fulfilled
CC1(C)CCC(CN2CCN(c3ccc(C(=O)NS(=O)(=O)c4ccc(NCC5CCOCC5)c([N+](=O)[O-])c4)c(Oc4cnc5[nH]ccc5c4)c3)CC2)=C(c2ccc(Cl)cc2)C1 + C=CC(=O)N1CCN(c2nc(=O)n(-c3c(C)ccnc3C(C)C)c3nc(-c4c(O)cccc4F)c(F)cc23)C(C)C1 ... not fulfilled
COc1cc2nccc(Oc3ccc(NC(=O)C4(C(=O)Nc5ccc(F)cc5)CC4)cc3)c2cc1OC + CNCc1ccccc1-c1csc(C(C)Nc2nc(C)nc3cc(OC)c(OC)cc23)c1 ... fulfilled

Now for a further compound.
Q: viability, T/C strictly < 80% for this compound? CC(=O)OC12COC1CC(O)C1(C)C(=O)C(O)C3=C(C)C(OC(=O)C(O)C(NC(=O)OC(C)(C)C)c4ccccc4)CC(O)(C(OC(=O)c4ccccc4)C21)C3(C)C (centres undefined) + COc1cc2nc(C)nc(NC(C)c3cc(N)cc(C(F)(F)F)c3)c2cc1OC1CCOC1
A: fulfilled

Data credit: PubChem BioAssay AID1963860
